Molecular target: Coagulation factor XI (Homo sapiens, UniProt P03951)
Sequence (P03951 19-387 limits assumed): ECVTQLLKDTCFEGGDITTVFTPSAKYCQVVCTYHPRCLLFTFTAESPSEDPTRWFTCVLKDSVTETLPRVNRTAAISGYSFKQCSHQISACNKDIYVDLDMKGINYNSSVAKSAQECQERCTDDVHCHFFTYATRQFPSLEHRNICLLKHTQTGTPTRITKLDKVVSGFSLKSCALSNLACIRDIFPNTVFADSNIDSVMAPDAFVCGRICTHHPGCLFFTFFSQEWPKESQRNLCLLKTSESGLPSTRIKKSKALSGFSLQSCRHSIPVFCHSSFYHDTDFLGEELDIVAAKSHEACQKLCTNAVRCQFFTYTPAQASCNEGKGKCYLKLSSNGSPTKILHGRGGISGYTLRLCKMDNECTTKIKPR
Sequence (P03951 388-625 limits assumed): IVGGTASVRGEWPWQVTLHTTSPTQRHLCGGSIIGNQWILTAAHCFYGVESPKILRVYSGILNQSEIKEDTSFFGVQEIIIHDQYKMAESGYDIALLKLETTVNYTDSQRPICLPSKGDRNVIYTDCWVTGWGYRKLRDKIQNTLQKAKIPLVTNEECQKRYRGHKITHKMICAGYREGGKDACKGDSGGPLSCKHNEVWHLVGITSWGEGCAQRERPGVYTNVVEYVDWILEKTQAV
pKi: −log10 of the molar value.
value.type: pKi

Examples with answers:
substance.smiles: COC(=O)Nc1ccc(-c2cc([C@H](CC(=O)N3CC[C@@H](O)C3)NC(=O)/C=C/c3cc(Cl)ccc3-n3cnnn3)c(Cl)nn2)cc1
pKi: 8.18
//
substance.smiles: COC(=O)Nc1ccc(-c2cc([C@H](Cc3ccccc3)NC(=O)/C=C/c3cc(Cl)ccc3-n3cnnn3)c(C)nn2)cc1
pKi: 8.21
//
substance.smiles: COC(=O)Nc1ccc(-c2cc([C@H](Cc3ccccc3)NC(=O)/C=C/c3cc(Cl)ccc3-n3cnnn3)nnc2C(=O)O)cc1
pKi: 7.96
//
substance.smiles: COC(=O)Nc1ccc(-c2cc([C@H](Cc3ccccc3)NC(=O)/C=C/c3cc(Cl)ccc3-n3cnnn3)nnc2C)cc1
pKi: 8.00
//
substance.smiles: COC(=O)Nc1ccc(-c2cc([C@H](Cc3ccccc3)NC(=O)/C=C/c3cc(Cl)ccc3-n3cnnn3)nnc2OC)cc1
pKi: 7.44

1 = COC(=O)Nc1ccc(-c2cc([C@H](Cc3ccccc3)NC(=O)/C=C/c3cc(Cl)ccc3-n3cnnn3)n[nH]c2=O)cc1
2 = COC(=O)Nc1ccc(-c2cc([C@H](Cc3ccccc3)NC(=O)/C=C/c3cc(Cl)ccc3-n3cnnn3)cnn2)cc1
// task: argmin of pKi over [ 1 , 2 ] Pick one; state its label.
1

---

Test: Volume of distribution at steady state in dog at 0.2 to 0.5 mg/kg, po or 0.2 to 0.4 mg/kg, iv administered as cassette dose
Type: ADME, organism-based, Canis lupus familiaris
Settings: in vivo, read-out: Vdss
value.type: Vd (L/kg)

substance.smiles: COC(=O)Nc1ccc(-c2cc([C@H](Cc3ccccc3)NC(=O)/C=C/c3cc(Cl)ccc3-n3cnnn3)nnc2Cl)cc1
units.of.measure: L/kg
value: 2.3

substance.smiles: COC(=O)Nc1ccc(-c2cc([C@H](CC(=O)N3CC[C@@H](O)C3)NC(=O)/C=C/c3cc(Cl)ccc3-n3cnnn3)c(Cl)nn2)cc1
units.of.measure: L/kg
value: 1.2

substance.smiles: COC(=O)Nc1ccc(-c2cc([C@H](Cc3ccc(F)cc3)NC(=O)/C=C/c3cc(Cl)ccc3-n3cnnn3)nnc2Cl)cc1
units.of.measure: L/kg
value: 1.5

I = COC(=O)Nc1ccc(-c2cc([C@H](Cc3ccccc3)NC(=O)/C=C/c3cc(Cl)ccc3-n3cnnn3)nnc2C)cc1
II = COC(=O)Nc1ccc(-c2cc([C@H](Cc3ccccc3)NC(=O)/C=C/c3cc(Cl)ccc3-n3cnnn3)c(Cl)nn2)cc1
I or II : whose Vd is greater? Pick one; state its label.
II

---

Assay: Oral bioavailability in dog at 0.2 to 0.5 mg/kg
Assay type: ADME, organism-based, Canis lupus familiaris
Conditions: in vivo
Measured bioavailability accompanies every entry in the list below.

Examples with answers:
substance.smiles: COC(=O)Nc1ccc(-c2cc([C@H](Cc3ccccc3)NC(=O)/C=C/c3cc(Cl)ccc3-n3cnnn3)cnn2)cc1
bioavailability: < 3%
//
substance.smiles: COC(=O)Nc1ccc(-c2cc([C@H](CC(=O)N3CC[C@@H](O)C3)NC(=O)/C=C/c3cc(Cl)ccc3-n3cnnn3)c(Cl)nn2)cc1
bioavailability: < 3%

Determine from records and report bioavailability for COC(=O)Nc1ccc(-c2cc([C@H](Cc3ccccc3)NC(=O)/C=C/c3cc(Cl)ccc3-n3cnnn3)c(Cl)nn2)cc1
< 3%
